Experiment: Cmax in Sprague-Dawley rat at 100 mg/kg, ip and measured upto 8 hrs by LC-MS/MS analysis
Assay type: ADME, organism-based
Parameters: time < 8 hrs, dose 100 mg/kg, route ip
Settings: in vivo
measure-name: Cmax

// sample "Cc1c(Cl)cccc1Nc1ccc(F)cc1C(=O)NCc1ccc(O)c(O)c1" , its Cmax was 20200 ng/mL

====

Test: Metabolic stability in rat whole blood assessed as parent compound remaining at 23.76 to 536 ug/mL and measured upto 4 hrs by HPLC analysis
Format: ADME, tissue-based
Conditions: at 23.76 to 536 µg/mL, dose 23.76-536 µg/ml, read-out: Stability
measure-name: remaining at 4 h

// sample "Cc1c(Cl)cccc1Nc1ccc(F)cc1C(=O)NCc1ccc(O)c(O)c1" , its remaining at 4 h was > 90%

====

Recorded inhibition by entry
Molecular target: DNA topoisomerase 1 (Homo sapiens)
Test: Inhibition of human topoisomerase I assessed as DNA unwinding using DNA pBR322 as substrate at 2 uM incubated for 30 mins by ethidium bromide staining based agarose gel electrophoresis
# number only, unit % dropped from output

Cc1c(Cl)cccc1Nc1ccccc1C(=O)NCc1cccc2c1OCO2: 3.51
Cc1c(Cl)cccc1Nc1ccccc1C(=O)NCc1ccc(O)c(O)c1: 55.3
O=C(NCc1ccc(O)cc1)c1ccccc1Nc1cccc(Cl)c1: 26.7

// sample "Cc1c(Cl)cccc1Nc1ncccc1C(=O)NCc1ccc(O)cc1" , its inhibition was 6.87

// sample "Cc1c(Cl)cccc1Nc1ccccc1C(=O)NCc1ccc(F)cc1" , its inhibition was 24.7
